assay: Approximate solubility, solvent addition method; type: physicochemical; conditions: Methanol (MeOH); ambient temperature
Where a SMILES comes first, the peptide text is derived from it.
MEASURED_ATTRIBUTE: solubility

Enquiry: Query: solubility; subject: CC(C)CC(NC(=O)C(N)Cc1ccccc1)C(=O)N1CCCC1C(=O)NC(CO)C(=O)O (stereo not shown) [SEQ ID NO: 1] (H-FLPS-OH; configuration not given here)
Return: ≥ 50 mg/mL

###

assay: Approximate solubility, solvent addition method; assay type: physicochemical; conditions: Acetonitrile (ACN); ambient temperature
Where a SMILES comes first, the peptide text is derived from it.
MEASURED_ATTRIBUTE: solubility

Enquiry: Entry CC(C)CC(NC(=O)C(N)Cc1ccccc1)C(=O)N1CCCC1C(=O)NC(CO)C(=O)O (stereo not shown) [SEQ ID NO: 1] (H-FLPS-OH; configuration not given here) : reported solubility = ?
Return: ≥ 19 mg/mL

###

assay: Approximate solubility, solvent addition method; type: physicochemical; settings: Pentane; ambient temperature
Where a SMILES comes first, the peptide text is derived from it.
MEASURED_ATTRIBUTE: solubility

Enquiry: Given the entry CC(C)CC(NC(=O)C(N)Cc1ccccc1)C(=O)N1CCCC1C(=O)NC(CO)C(=O)O (stereo not shown) [SEQ ID NO: 1] (H-FLPS-OH; configuration not given here) , report its measured solubility.
Return: ≤ 2000 µg/mL

###

assay: Approximate solubility, solvent addition method; format: physicochemical; details: Tetrahydrofuran (THF); ambient temperature
Where a SMILES comes first, the peptide text is derived from it.
MEASURED_ATTRIBUTE: solubility

Enquiry: Suppose we examine the molecule CC(C)CC(NC(=O)C(N)Cc1ccccc1)C(=O)N1CCCC1C(=O)NC(CO)C(=O)O (stereo not shown) [SEQ ID NO: 1] (H-FLPS-OH; configuration not given here) ; what solubility value has been reported?
Return: ≥ 44 mg/mL

###

assay: Approximate solubility, solvent addition method; type: physicochemical; settings: Ethyl acetate (EtOAc); ambient temperature
Where a SMILES comes first, the peptide text is derived from it.
MEASURED_ATTRIBUTE: solubility

Enquiry: Given the entry CC(C)CC(NC(=O)C(N)Cc1ccccc1)C(=O)N1CCCC1C(=O)NC(CO)C(=O)O (stereo not shown) [SEQ ID NO: 1] (H-FLPS-OH; configuration not given here) , report its measured solubility.
Return: ≥ 20 mg/mL

###

assay: Approximate solubility, solvent addition method; format: physicochemical; conditions: Isopropyl ether; ambient temperature
Where a SMILES comes first, the peptide text is derived from it.
MEASURED_ATTRIBUTE: solubility

Enquiry: Any idea what its solubility is? The compound is CC(C)CC(NC(=O)C(N)Cc1ccccc1)C(=O)N1CCCC1C(=O)NC(CO)C(=O)O (stereo not shown) [SEQ ID NO: 1] (H-FLPS-OH; configuration not given here)
Return: ≤ 2700 µg/mL

###

test: Approximate solubility, solvent addition method; assay type: physicochemical; conditions: Chloroform; ambient temperature
Where a SMILES comes first, the peptide text is derived from it.
MEASURED_ATTRIBUTE: solubility

Enquiry: What value of solubility has been reported for the following molecule? CC(C)CC(NC(=O)C(N)Cc1ccccc1)C(=O)N1CCCC1C(=O)NC(CO)C(=O)O (stereo not shown) [SEQ ID NO: 1] (H-FLPS-OH; configuration not given here)
Return: ≤ 1900 µg/mL
